Here the recorded IC50 is given for each entry.
Target: Src (Homo sapiens, UniProt P12931)
Sequence (P12931 whole entry, species assumed): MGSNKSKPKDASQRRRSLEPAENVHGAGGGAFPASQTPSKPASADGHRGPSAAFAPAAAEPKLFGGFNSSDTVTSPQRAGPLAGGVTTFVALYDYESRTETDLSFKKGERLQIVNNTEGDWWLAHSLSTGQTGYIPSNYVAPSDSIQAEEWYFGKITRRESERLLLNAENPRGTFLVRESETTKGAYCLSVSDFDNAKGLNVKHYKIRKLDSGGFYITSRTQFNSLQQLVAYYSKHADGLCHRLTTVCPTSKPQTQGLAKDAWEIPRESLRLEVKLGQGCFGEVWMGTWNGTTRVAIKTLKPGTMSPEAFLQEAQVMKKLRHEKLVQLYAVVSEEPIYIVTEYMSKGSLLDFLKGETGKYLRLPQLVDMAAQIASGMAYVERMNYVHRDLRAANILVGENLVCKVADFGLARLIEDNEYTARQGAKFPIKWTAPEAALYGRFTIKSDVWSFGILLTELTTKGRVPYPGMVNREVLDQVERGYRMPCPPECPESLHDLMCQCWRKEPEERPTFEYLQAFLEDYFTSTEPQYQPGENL

# return IC50 for COc1ccc(Nc2ncnc(Nc3cc(-c4ccco4)n[nH]3)n2)cc1OC , test system: Src (Homo sapiens, UniProt P12931)
1.05 to 6.33 µM

# return IC50 for COc1ccc(Nc2nc3ccccc3n2-c2ncnc(Nc3cc(OC)c(OC)c(OC)c3)n2)cc1OC , test system: Src (Homo sapiens, UniProt P12931)
> 8.5 µM

* * *

Biological target: Flt-1 (Homo sapiens, UniProt P17948)
Sequence (P17948 27-1338, species assumed): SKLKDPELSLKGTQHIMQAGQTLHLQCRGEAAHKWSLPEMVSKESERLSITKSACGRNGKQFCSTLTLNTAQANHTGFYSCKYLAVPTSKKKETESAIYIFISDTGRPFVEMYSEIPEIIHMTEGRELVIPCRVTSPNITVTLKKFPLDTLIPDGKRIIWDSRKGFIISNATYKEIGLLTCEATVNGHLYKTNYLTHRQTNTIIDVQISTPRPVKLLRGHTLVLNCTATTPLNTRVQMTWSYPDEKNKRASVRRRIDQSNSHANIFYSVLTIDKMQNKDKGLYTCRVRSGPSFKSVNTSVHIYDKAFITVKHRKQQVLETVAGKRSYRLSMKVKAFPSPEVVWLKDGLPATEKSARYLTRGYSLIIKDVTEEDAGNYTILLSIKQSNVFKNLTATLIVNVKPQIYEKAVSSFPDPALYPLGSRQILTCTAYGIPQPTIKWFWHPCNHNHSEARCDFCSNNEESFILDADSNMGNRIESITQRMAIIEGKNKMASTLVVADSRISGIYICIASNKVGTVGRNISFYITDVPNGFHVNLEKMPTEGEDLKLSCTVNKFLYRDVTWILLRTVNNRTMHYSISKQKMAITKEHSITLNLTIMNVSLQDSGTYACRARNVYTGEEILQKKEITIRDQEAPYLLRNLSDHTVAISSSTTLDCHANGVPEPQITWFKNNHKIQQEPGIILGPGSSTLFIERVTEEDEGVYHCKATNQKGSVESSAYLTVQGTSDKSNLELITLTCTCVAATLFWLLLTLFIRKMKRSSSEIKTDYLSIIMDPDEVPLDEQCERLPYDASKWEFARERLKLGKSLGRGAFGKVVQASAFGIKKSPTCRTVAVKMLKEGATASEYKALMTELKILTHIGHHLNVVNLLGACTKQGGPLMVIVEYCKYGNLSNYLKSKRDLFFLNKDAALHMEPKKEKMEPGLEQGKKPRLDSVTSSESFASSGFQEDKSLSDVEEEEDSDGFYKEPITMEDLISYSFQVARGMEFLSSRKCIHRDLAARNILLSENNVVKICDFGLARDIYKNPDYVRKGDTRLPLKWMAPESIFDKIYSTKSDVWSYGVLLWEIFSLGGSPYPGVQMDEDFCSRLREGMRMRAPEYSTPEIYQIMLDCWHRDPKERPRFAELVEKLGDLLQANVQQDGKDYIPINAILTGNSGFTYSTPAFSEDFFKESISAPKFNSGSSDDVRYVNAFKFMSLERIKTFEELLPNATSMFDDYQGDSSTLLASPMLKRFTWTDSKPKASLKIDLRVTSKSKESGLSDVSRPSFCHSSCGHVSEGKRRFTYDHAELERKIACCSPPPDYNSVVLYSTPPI
Here the recorded IC50 is given for each entry.

Use these answered entries as a reference point.
{"Molecule": "COc1cc(Nc2ncnc(N(C)c3cccc4ccccc34)n2)cc(OC)c1OC [Compound 607]", "IC50": "8.38 to 10.8 µM"}
{"Molecule": "COc1cc(Nc2ncnc(Nc3ccc(Oc4ccccc4)cc3)n2)cc(OC)c1OC [Compound 29]", "IC50": "< 0.898 µM"}
{"Molecule": "COc1cc(Nc2ncnc(-n3c(NCc4ccc(F)cc4)nc4ccccc43)n2)cc(OC)c1OC [Compound 514]", "IC50": "< 0.798 µM"}
{"Molecule": "COc1cc(Nc2ncnc(Nc3ccc(Br)c(Cl)c3)n2)cc(OC)c1OC [Compound 936]", "IC50": "0.857 to 5.14 µM"}

Switching to the query record.
Supply recorded IC50 for COC(=O)c1sccc1Nc1ncnc(Nc2cc(OC)c(OC)c(OC)c2)n1 [Compound 315] here.
> 10.8 µM

* * *

Reported IC50 values, ErbB2 (Homo sapiens).

{"Molecule": "COc1cc(Nc2ncnc(Nc3cc(-c4cccc(C)c4)n[nH]3)n2)cc(OC)c1OC", "IC50": "0.923 to 5.54 µM"}

Supply recorded IC50 for COc1cc(Nc2ncnc(-n3c(Nc4ccc(N(C)C)cc4)nc4ccccc43)n2)cc(OC)c1OC here.
0.78 to 4.68 µM

Supply recorded IC50 for CN(c1cccc(Cl)c1)c1ncnc(Cl)n1 here.
> 17.6 µM

Supply recorded IC50 for CN(c1cccc(Cl)c1)c1ncnc(Nc2ccc(F)c(C(F)(F)F)c2)n1 here.
> 11.3 µM

Supply recorded IC50 for Cc1ccc2c(c1)CCCN2c1ncnc(NCC2CCCO2)n1 (stereo not shown) here.
> 13.8 µM

Supply recorded IC50 for COc1cc(Nc2ncnc(N[C@H]3CCCc4ccccc43)n2)cc(OC)c1OC here.
8.59 to 11 µM

Supply recorded IC50 for COc1ccc(Nc2ncnc(N(C)[C@H](C)c3ccccc3)n2)cc1OC here.
6.57 to 9.58 µM

Supply recorded IC50 for COc1ccc(Nc2ncnc(Nc3ccc(F)c(F)c3)n2)cc1OC here.
1.11 to 6.68 µM

Supply recorded IC50 for COc1cc(Nc2ncnc(NC3CC3c3ccccc3)n2)cc(OC)c1OCCN1CCOCC1 (stereo not shown) here.
0.812 to 4.87 µM

* * *

Here the recorded pIC50 is given for each entry.
Molecular target: EGFR (Homo sapiens, UniProt P00533)
Construct: Kinases are expressed as either kinase domains or full length constructs; made in house
Sequence (P00533 25-1210, species assumed): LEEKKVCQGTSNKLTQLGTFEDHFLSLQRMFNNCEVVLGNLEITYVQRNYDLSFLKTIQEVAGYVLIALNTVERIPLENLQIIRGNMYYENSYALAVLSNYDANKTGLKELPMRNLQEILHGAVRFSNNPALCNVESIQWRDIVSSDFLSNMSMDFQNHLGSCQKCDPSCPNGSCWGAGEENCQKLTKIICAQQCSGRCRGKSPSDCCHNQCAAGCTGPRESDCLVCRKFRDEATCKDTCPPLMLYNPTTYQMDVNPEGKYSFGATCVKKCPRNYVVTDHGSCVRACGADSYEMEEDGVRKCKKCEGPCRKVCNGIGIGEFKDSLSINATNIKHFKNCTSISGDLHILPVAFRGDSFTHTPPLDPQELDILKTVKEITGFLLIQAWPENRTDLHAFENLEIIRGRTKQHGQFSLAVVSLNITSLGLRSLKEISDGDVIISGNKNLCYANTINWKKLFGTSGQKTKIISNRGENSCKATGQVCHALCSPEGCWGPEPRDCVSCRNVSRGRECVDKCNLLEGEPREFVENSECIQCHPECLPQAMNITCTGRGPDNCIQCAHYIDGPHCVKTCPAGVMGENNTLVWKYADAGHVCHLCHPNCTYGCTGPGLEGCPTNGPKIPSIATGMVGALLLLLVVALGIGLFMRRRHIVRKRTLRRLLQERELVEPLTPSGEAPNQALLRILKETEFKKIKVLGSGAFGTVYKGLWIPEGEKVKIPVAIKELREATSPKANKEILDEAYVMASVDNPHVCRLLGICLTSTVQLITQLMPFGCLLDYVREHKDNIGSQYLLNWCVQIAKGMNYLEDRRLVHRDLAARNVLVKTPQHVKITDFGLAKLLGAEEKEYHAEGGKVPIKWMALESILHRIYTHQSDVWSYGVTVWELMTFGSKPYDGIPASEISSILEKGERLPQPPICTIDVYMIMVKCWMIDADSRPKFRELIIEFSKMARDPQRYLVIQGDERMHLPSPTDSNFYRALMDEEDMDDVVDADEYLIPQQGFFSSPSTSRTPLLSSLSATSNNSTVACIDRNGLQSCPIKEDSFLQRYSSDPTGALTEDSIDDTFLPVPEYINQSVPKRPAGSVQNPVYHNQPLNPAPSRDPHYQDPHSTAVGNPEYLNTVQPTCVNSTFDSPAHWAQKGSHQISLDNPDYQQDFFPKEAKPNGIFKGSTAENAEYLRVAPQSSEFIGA
Experiment: Kinase inhibition assay (33P transfer), EGFR
Format: biochemical
Conditions: Table 2, kinase inhibition class; read-out: EGFR-1
pIC50: −log10 of the molar value.

Use these answered entries as a reference point.
{"Smiles record": "COC(=O)Cc1cccc(Nc2ncnc(-n3c(NCc4ccccn4)nc4ccccc43)n2)c1", "Observed": "< 5.02"}
{"Smiles record": "COc1cc(Nc2ncnc(-n3c(NCCO)nc4ccccc43)n2)cc(OC)c1OC", "Observed": "< 4.99"}

Supply recorded pIC50 for O=c1[nH]c2ccccc2n1-c1ncnc(Nc2cccc([N+](=O)[O-])c2)n1 here.
< 4.89

Supply recorded pIC50 for c1coc(-c2cc(Nc3ncnc(Nc4ccc(N5CCOCC5)cc4)n3)[nH]n2)c1 here.
5.06 to 5.23

Supply recorded pIC50 for COc1ccc(Nc2ncnc(Nc3cccc(-c4ccnc(C)n4)c3)n2)cc1OC here.
< 4.97

Supply recorded pIC50 for COc1cc(Nc2ncnc(N3CCN(C)CC3)n2)cc(OC)c1OC here.
< 4.90

Supply recorded pIC50 for COc1cc(Nc2ncnc(-n3c(NCc4ncccc4C)nc4ccccc43)n2)cc(OC)c1OC here.
< 5.04

Supply recorded pIC50 for NC(=O)c1ccc(Nc2ncnc(-n3c(N)nc4ccccc43)n2)cc1 here.
5.00 to 5.16

Supply recorded pIC50 for COc1ccc(Nc2ncnc(N(CC(=O)O)c3ccc4c(c3)OCO4)n2)cc1OC here.
5.25 to 6.03

Supply recorded pIC50 for COC(=O)c1ccc(Nc2ncnc(Nc3cc(-c4ccco4)n[nH]3)n2)cc1 here.
< 4.92

* * *

Biological target: IGFR-1 (Homo sapiens, UniProt P08069)
Construct: Kinases are expressed as either kinase domains or full length constructs; made in house
Sequence (P08069 31-1367): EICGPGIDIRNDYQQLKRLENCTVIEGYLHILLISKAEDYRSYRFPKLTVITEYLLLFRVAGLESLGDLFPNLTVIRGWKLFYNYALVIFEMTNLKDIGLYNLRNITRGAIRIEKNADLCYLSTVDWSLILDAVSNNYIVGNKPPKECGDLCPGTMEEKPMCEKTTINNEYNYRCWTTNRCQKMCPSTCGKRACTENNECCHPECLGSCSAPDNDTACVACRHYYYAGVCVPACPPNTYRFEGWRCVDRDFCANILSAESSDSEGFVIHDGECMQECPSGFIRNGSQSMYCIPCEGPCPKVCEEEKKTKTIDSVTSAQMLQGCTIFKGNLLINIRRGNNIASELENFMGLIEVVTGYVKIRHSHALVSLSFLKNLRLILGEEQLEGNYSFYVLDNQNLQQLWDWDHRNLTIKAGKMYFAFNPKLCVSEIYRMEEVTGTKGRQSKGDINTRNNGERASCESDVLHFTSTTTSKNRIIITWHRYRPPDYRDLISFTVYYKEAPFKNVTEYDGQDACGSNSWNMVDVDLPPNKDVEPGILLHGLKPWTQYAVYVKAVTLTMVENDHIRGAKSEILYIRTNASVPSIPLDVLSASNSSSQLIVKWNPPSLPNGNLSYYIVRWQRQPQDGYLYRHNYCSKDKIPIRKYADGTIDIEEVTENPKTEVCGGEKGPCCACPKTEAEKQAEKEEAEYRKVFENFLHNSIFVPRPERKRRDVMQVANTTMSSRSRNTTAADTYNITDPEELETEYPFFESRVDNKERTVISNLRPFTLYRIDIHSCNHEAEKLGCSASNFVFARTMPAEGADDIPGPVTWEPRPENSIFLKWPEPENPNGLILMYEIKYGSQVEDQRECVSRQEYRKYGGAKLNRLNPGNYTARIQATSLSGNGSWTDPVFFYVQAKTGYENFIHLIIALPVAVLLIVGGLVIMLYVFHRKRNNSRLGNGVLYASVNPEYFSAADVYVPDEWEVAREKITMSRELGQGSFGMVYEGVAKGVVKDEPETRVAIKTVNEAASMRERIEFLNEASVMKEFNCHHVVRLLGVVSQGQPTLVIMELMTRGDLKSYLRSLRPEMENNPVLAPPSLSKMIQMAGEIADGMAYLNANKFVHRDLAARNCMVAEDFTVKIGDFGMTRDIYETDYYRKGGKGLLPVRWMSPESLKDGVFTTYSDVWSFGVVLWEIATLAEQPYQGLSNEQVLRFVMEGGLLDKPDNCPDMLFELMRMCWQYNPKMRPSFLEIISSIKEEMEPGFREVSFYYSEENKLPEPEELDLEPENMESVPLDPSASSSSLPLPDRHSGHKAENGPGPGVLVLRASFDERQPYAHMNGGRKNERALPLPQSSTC
Test: Kinase inhibition assay (33P transfer), IGFR-1
Type: biochemical
Settings: Table 2, kinase inhibition class
Quantity name: IC50

Use these answered entries as a reference point.
{"Molecule": "c1ccc(COc2cccc(Nc3ncnc(-c4cccs4)n3)c2)cc1 [Compound 361]", "System name": "IGFR-1 (Homo sapiens, UniProt P08069)", "Quantity name": "IC50", "Observed": "> 12.5 µM"}
{"Molecule": "COc1cc(Nc2ncnc(-c3ccnc(NCCCO)c3)n2)cc(OC)c1OC [Compound 180]", "System name": "IGFR-1 (Homo sapiens, UniProt P08069)", "Quantity name": "IC50", "Observed": "> 10.9 µM"}
{"Molecule": "COc1cc(Nc2ncnc(N(CCC(C)C)c3ccc(Cl)cc3)n2)cc(OC)c1OC [Compound 51]", "System name": "IGFR-1 (Homo sapiens, UniProt P08069)", "Quantity name": "IC50", "Observed": "> 9.83 µM"}
{"Molecule": "COc1cc(Nc2ncnc(Nc3ccc4cn[nH]c4c3)n2)cc(OC)c1OC [Compound 70]", "System name": "IGFR-1 (Homo sapiens, UniProt P08069)", "Quantity name": "IC50", "Observed": "1.02 to 6.1 µM"}

Switching to the query record.
# return IC50 for COc1cc(Nc2ncnc(Nc3ccc(C)c(N)c3)n2)cc(OC)c1OC [Compound 935] , test system: IGFR-1 (Homo sapiens, UniProt P08069)
1.05 to 6.28 µM

* * *

Here the recorded pIC50 is given for each entry.
Molecular target: AKT (Homo sapiens)
Construct: Kinases are expressed as either kinase domains or full length constructs; made in house
Sequence (Q9Y243 whole entry, the tested form may be a part): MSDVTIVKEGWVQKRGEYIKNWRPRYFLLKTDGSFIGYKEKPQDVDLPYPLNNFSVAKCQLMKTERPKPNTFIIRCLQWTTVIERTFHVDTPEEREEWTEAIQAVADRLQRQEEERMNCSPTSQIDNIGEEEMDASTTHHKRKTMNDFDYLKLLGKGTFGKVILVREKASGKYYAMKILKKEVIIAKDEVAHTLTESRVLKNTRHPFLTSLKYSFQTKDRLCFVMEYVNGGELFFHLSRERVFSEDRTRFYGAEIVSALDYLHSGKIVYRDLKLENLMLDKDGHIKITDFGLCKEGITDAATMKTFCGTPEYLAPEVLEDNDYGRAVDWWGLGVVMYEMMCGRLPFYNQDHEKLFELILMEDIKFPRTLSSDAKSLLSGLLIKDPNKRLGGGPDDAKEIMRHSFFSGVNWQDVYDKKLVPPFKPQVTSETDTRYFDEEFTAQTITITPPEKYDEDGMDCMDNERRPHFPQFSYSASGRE
Assay: Kinase inhibition assay (33P transfer), AKT
Assay type: biochemical
Settings: Table 2, class symbols A-E; read-out: AKT3-1
pIC50: −log10 of the molar value.

Use these answered entries as a reference point.
{"Compound": "COC(=O)c1ccc(-c2cc(Nc3ncnc(Nc4cccc5ncccc45)n3)[nH]n2)cc1 [Compound 878]", "Observed": "< 4.99"}
{"Compound": "Clc1cccc(Nc2ncnc(Nc3ccc4[nH]ncc4c3)n2)c1 [Compound 134]", "Observed": "5.15 to 5.93"}
{"Compound": "CCN(c1ncnc(Nc2cc(OC)c(OC)c(OC)c2)n1)c1cccc2ccccc12 [Compound 634]", "Observed": "4.98 to 5.09"}
{"Compound": "COc1cc(Nc2ncnc(Nc3ccc(OCCO)cc3)n2)cc(OC)c1OC [Compound 636]", "Observed": "< 4.96"}
{"Compound": "CCN(c1cccc(Cl)c1)c1ncnc(Nc2cc(OC)cc(OC)c2)n1 [Compound 724]", "Observed": "< 4.93"}
{"Compound": "COc1cc(CNc2ncnc(Nc3cc(-c4ccco4)n[nH]3)n2)cc(OC)c1OC [Compound 997]", "Observed": "< 4.97"}

Supply recorded pIC50 for COc1cc(Nc2ncnc(-c3cccnc3Nc3cc(Cl)cc(Cl)c3)n2)cc(OC)c1OC [Compound 837] here.
< 5.05

Supply recorded pIC50 for CCOc1ccc(Nc2ncnc(N(C)c3cccc(Cl)c3)n2)cc1OCC [Compound 640] here.
< 4.95

* * *

Molecular target: Lck (Homo sapiens, UniProt P06239)
Construct: Kinases are expressed as either kinase domains or full length constructs; made in house
Assay: Kinase inhibition assay (33P transfer), Lck
Type: biochemical
Details: read-out: Lck-1
pIC50: −log10 of the molar value.
Quantity name: pIC50

Use these answered entries as a reference point.
{"Molecule": "CN(c1cccc(Cl)c1)c1ncnc(NCC2CCCO2)n1 (stereo not drawn)", "pIC50": "< 4.85"}
{"Molecule": "COc1cc(Nc2ncnc(N[C@H]3CCCc4ccccc43)n2)cc(OC)c1OC", "pIC50": "5.07 to 5.23"}
{"Molecule": "O=c1[nH]c2ccccc2n1-c1ncnc(Nc2ccccn2)n1", "pIC50": "< 4.83"}
{"Molecule": "COc1cc(Nc2ncnc(Nc3ccc(C(C)=O)cc3)n2)cc(OC)c1OC", "pIC50": "> 5.99"}
{"Molecule": "CCc1ccc(Nc2ncnc(-n3c(N)nc4ccccc43)n2)cc1", "pIC50": "4.98 to 5.14"}

Supply recorded pIC50 for O=c1[nH]c2ccccc2n1-c1ncnc(Nc2cccc3ccccc23)n1 here.
< 4.90

# credit: patent US7074789B2
